B1: CD2-associated protein, residues 271 to 331; numbered along this chain, Q9Y5K6 (parent)
chain: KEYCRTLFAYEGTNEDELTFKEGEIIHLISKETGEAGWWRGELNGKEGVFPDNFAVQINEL

Variants of: B1
Test: abundance fitness (aPCA) (normalised: wild type 0, dead -1); higher = more abundant; growth selection in yeast, the domain comes from the species named
Conditions: Homo sapiens
Given measured abundance fitness, output True if it is greater than or equal to -0.5 and False if not.

Some entries whose results are on file:
E22L	False
G48R	False
E60Q	True
L61W	True
R40E	False

Query :: Determine whether this variant has abundance fitness no lower than -0.5: L28C
Result :: False

Query :: Param item: K21A
Result :: True

Query :: Moving on to the next variant: P51S
Result :: False

Query :: // same read-out, input: K31G
Result :: False

Query :: Similarly, K46N ?
Result :: True

Query :: And what about the variant G45R ?
Result :: False

Query :: Let us now turn to E15T
Result :: True
